The sequences listed here are annotated with their phosphorylation enrichment.
- System: AncSZ;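 also: 11-residue human phosphosite peptides and single-mutation variants displayed on the E. coli surface, counted by deep sequencing, each peptide's frequency after selection divided by its frequency in the unselected input library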;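 also: frequency after pTyr selection over input frequency; kinase dosed for 20-30% of maximal phosphorylation in three min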
- ASSAY_NAME: phosphorylation enrichment, bacterial display (enrichment ratio); higher = better substrate or ligand; peptides without Tyr show the background
OBSERVATION_TYPE: phosphorylation enrichment

| ORDERED_RESIDUES | VAL |
| --- | --- |
| RGDVIYKGFED [NFU1_Y194_G189R] | 0.81 |
| AKLNIYKRKVE [VWA3B_Y918] | 0.486 |
| SGSWSYNTSTE [SELE_Y24_A21S] | 0.925 |
| SEDANYKRVSC [TTC3_Y1288] | 0.886 |
| SVVVPYETPEV [TP53_Y220_P222T] | 1.42 |
| DMDATYRPMYS [JUP_Y701] | 0.678 |
| KGNMYYENSYA [EGFR_Y113_R108K] | 0.667 |
| CKSVHYDLVFL [COL22A1_Y37] | 1.24 |
| PRDSGYSYETI [MAP1B_Y1921_S1917R] | 0.917 |
| EDGCIYPGTIA [SMN1_Y109_A111G] | 0.947 |
| QKKEEYKMALY [F8_Y1990_R1985Q] | 1.72 |
| SSEFHYVGGFF [CTSC_Y347_YF] | 0.949 |
| MSRDIYSTDYY [NTRK1_Y676] | 1.83 |
| YEDALYTVLHR [UNC13D_Y61] | 3.84 |
| KQVEQYMSFHK [HCN1_Y417] | 0.833 |
| AQMAMYFWEMG [TRPM4_Y577] | 1.38 |
| CPFNLYAAQLS [HGD_Y40_E42A_YF] | 1.2 |
| MDDKEYFSVHN [MET_Y1234_Y1230D_YF] | 1.43 |
| CYSSEYHYVGG [CTSC_Y345_Y340C] | 4.45 |
| VVRSLYEDLED [VHL_Y185_I180V] | 1.26 |
| KQRSDYARELE [MYH3_Y1140] | 0.636 |
| DAKAIYDFTDT [PDK1_Y136] | 1.3 |
| RGDCMYAPLLG [AR_Y269] | 0.898 |
| PRNLIYFGEHP [TRPV6_Y201_C197R] | 1.23 |
| LKFAIYFEVRE [LAMA2_Y1258_A1261V_YF] | 1.65 |
| YVFSFYHAFSG [ACTN4_Y265_S262F] | 1.37 |
| KTDKKYLMIKE [BAG3_Y451_E455K] | 0.64 |
| APGDAYGDAGF [SYP_Y250_YF] | 0.938 |
| TLAHKYHGGGG [HBB_Y146_A141T] | 0.652 |
| LEIETYPRLLD [KRT12_Y429_R430P] | 1.3 |
| LGKLTYPVGFW [NTHL1_Y177_I176T] | 2.42 |
| QSKGIYYVQLE [MGAT4B_Y262] | 1.21 |
| FKEIVYAVSSD [DCX_Y70_G67E] | 1.32 |
| KDGSGYISAAE [CALM1_Y100_N98S] | 0.648 |
| FSAPNYCYRCG [PPP2CA_Y265] | 0.656 |
| PESTLYRKFTT [NTRK1_Y701_I699T] | 1.01 |
| NSNSDYVDILP [SH2D1B_Y127_V130I] | 1.85 |
| SPRDTYSDRSG [CTPS1_Y567] | 0.494 |
| KILTHYKRPHT [KMT2D_Y5349] | 0.495 |
| DRPASYLEKVR [KRT13_Y118_L115P] | 0.438 |
| RAIELYNDKEK [OTULIN_Y244] | 1.52 |
| DRLASNLDKVR [KRT10_Y160_Y160N] | 0.556 |
| FTYDPYSEEDP [IL2RB_Y387] | 1.05 |
| AQVDTYCRHNY [HLA-DRB1_Y107_A103Q] | 0.752 |
| QQLDKYQELLD [LMNA_Y359_E358K] | 1.26 |
| KDKLPYLYDDP [GPX2_Y125_P126L] | 1.17 |
| RGFDTYFGYLL [ARSB_Y165] | 2.15 |
| LKLIQYHLIQQ [AKAP4_Y554_T557I] | 1.2 |
| LDAFIYNAAVL [GRIN2A_Y730_D731N] | 1.72 |
| LNERHYGGLTD [PGAM2_Y92_G97D] | 1.18 |
| VKMLEYLGKDV [CASP5_Y74] | 1.07 |
| FHRQLYHKCTH [F12_Y58_YF] | 0.601 |
| AESPEHVHMFT [FAM111A_Y511_Y511H_YF] | 0.746 |
| IFRAAYFGVFD [SLC25A4_Y191_YF] | 0.985 |
| QGLRLYRPHLP [BTK_Y617_A622P] | 0.772 |
| INITIYGKTFH [EFHC1_Y177_R182H] | 1.11 |
| KLLPEYPGVLS [DHFR2_Y163] | 0.685 |
| HDKEFYSVHNK [MET_Y1235_Y1230H_YF] | 1.14 |
